- System: Staphylococcus aureus MW2 (mecA+)
- experiment: IC50 (growth, competition assay)
- reportedConditions: fluorescent label: DsRed; cefoxitin: subinhibitory
Structures can show the parent of a compound that is named as a salt.
valueKind: pIC50
pIC50 is defined as minus the log10 of a concentration measured in mol/L.

# pIC50 of `Cc1cc(Nc2cc(N3CCN(C)CC3)nc(/C=C/c3ccccc3)n2)n[nH]1` = 4.32

# pIC50 of `O=C1c2ccccc2-c2nc3nonc3nc21` = 4.18

# pIC50 of CC[C@H](C)C(=O)O[C@H]1C[C@H](O)C=C2C=C[C@H](C)[C@H](CC[C@@H](O)C[C@@H](O)CC(=O)O)[C@H]21 [Pravastatin sodium] = 4.54

# pIC50 of `COc1ccc(Cl)cc1NC(=O)Nc1cc(C)nc2ccccc12` = 4.62

# pIC50 of `Brc1c(Br)c(Br)c2[nH]cnc2c1Br` = 4.91

# pIC50 of CCCCC(CC)COC(=O)CC(C(=O)OCC(CC)CCCC)S(=O)(=O)O (configuration not stated) = 4.25

# pIC50 of `Cc1cc(NC2CCCCC2)nc(-n2nc(C)cc2C)n1` = 4.40

# pIC50 of COc1cc([C@@H]2c3cc4c(cc3[C@@H](O[C@@H]3O[C@@H]5CO[C@@H](C)O[C@H]5[C@H](O)[C@H]3O)[C@H]3COC(=O)[C@H]23)OCO4)cc(OC)c1O [Etoposide] = 4.83

# pIC50 of CCc1cc2c(cc1CC)CC(NC[C@H](O)c1ccc(O)c3[nH]c(=O)ccc13)C2 [Indacaterol Maleate] = 4.15

# pIC50 of `C=C1C(=O)[C@]23[C@H](CC[C@@H]1[C@@H]2O)[C@]12CO[C@@]3(O)[C@H](O)[C@H]1C(C)(C)CC[C@@H]2O` = 4.44

# pIC50 of CCOc1nc2cccc(C(=O)OCc3oc(=O)oc3C)c2n1Cc1ccc(-c2ccccc2-c2noc(=O)[nH]2)cc1 [Azilsartan Medoxomil (TAK-491)] = 4.32

# pIC50 of C=C[C@](C)(O)CC[C@@H]1[C@@]2(C)CCCC(C)(C)[C@@H]2CC[C@@]1(C)O [SCLAREOL] = 4.50

# pIC50 of `CCN1CCN(C(=O)N[C@@H](C(=O)N[C@@H]2C(=O)N3[C@@H]2SC(C)(C)[C@@H]3C(=O)O)c2ccccc2)C(=O)C1=O` = 4.57

# pIC50 of `Cc1cc(Nc2ncc(Cl)c(Nc3ccccc3S(=O)(=O)C(C)C)n2)c(OC(C)C)cc1C1CCNCC1` = 4.54

# pIC50 of `C=CCCCCCCCCCCCc1ccco1` = 4.31

# pIC50 of `CN1CCN(c2c(F)cc3c(=O)c(C(=O)O)cn4c3c2OCN4C)CC1` = 5.19

# pIC50 of CO/N=C(\C(=O)N[C@@H]1C(=O)N2C(C(=O)OCOC(=O)C(C)(C)C)=C(/C=C\c3scnc3C)CS[C@H]12)c1csc(N)n1 [Cefditoren pivoxil] = 4.78

# pIC50 of O=C(C=Cc1ccc(O)cc1)c1ccccc1O [2',4-DIHYDROXYCHALCONE] = 4.39

# pIC50 of `COC1=C(OC)C(=O)C(CCCCCCCCCCO)=C(C)C1=O` = 4.64
